molecular target: rhHDAC 3 (Homo sapiens, UniProt O15379); experiment: Inhibition of recombinant human HDAC isoforms; settings: mean ± SD, triplicate per plate, min two plates; read-out: ED50 rhHDAC 3
Sequence (O15379 whole entry, canonical isoform): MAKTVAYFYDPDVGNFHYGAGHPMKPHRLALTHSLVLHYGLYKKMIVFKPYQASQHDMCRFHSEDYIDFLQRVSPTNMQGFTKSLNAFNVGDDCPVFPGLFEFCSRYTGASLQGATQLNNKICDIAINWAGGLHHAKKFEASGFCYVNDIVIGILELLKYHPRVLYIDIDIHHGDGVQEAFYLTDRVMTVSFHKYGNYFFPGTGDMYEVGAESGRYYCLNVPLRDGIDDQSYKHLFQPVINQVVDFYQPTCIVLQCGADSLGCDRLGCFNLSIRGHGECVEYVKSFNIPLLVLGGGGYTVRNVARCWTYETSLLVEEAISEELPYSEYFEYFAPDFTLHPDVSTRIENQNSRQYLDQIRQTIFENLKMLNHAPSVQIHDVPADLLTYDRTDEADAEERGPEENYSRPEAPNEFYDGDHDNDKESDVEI
Sequence (Q9Y618 395-489 partner limits assumed): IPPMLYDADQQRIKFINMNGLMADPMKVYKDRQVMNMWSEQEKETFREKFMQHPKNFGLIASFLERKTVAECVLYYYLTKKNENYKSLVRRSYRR
pIC50: −log10 of the molar value.
Measurement Label: pIC50

O=C(/C=C/c1cccc(S(=O)(=O)Nc2cccc(F)c2)c1)NO    7.05
O=C(/C=C/c1cccc(S(=O)(=O)N2CCN(c3ccccn3)CC2)c1)NO    8.55
COc1ccccc1N1CCN(S(=O)(=O)c2cccc(/C=C/C(=O)NO)c2)CC1    7.02
O=C(/C=C/c1nc2ccccc2o1)NO    7.01

[A] COc1ccc(N2CCN(S(=O)(=O)c3cccc(/C=C/C(=O)NO)c3)CC2)cc1
[B] COc1ccc(NS(=O)(=O)c2cccc(/C=C/C(=O)NO)c2)cc1
Decide: A or B , by lowest recorded pIC50. Answer by stating the label of the chosen item.
A

* * *

target: rhHDAC 2 (Homo sapiens); test: Inhibition of recombinant human HDAC isoforms; type: biochemical; details: mean ± SD, triplicate per plate, min two plates; read-out: ED50 rhHDAC 2
Sequence (Q92769 whole entry, canonical isoform): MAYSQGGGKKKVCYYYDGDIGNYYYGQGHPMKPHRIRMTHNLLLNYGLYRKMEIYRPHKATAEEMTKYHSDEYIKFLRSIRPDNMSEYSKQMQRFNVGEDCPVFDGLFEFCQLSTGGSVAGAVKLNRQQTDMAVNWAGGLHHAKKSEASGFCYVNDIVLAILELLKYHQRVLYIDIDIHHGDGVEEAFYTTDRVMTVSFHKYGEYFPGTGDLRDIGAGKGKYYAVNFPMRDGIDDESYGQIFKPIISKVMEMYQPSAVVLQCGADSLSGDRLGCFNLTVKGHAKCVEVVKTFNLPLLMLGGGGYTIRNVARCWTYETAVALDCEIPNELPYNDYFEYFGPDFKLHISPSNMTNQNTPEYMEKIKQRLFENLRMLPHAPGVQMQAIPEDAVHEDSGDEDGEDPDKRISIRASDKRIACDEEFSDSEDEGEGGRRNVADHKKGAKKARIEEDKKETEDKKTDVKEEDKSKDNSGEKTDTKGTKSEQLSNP
pIC50: −log10 of the molar value.
Measurement Label: pIC50

In the examples that follow, each entry is paired with its recorded pIC50.
O=C(/C=C/c1cccc(S(=O)(=O)N2CCN(c3ccccn3)CC2)c1)NO    7.26
COc1ccc(NS(=O)(=O)c2cccc(/C=C/C(=O)NO)c2)cc1    6.98
O=C(/C=C/c1nc2ccccc2o1)NO    6.26
COc1ccccc1N1CCN(S(=O)(=O)c2cccc(/C=C/C(=O)NO)c2)CC1    6.51

[P] O=C(/C=C/c1cccc(S(=O)(=O)Nc2cccc(F)c2)c1)NO
[Q] COc1ccc(N2CCN(S(=O)(=O)c3cccc(/C=C/C(=O)NO)c3)CC2)cc1
Decide: P or Q , by lowest recorded pIC50. Answer by stating the label of the chosen item.
P
(P: 6.66, Q: 7.44)

* * *

system: HDAC (FDL_HELA); assay: Histone deacetylase activity in HeLa cell lysates (fluorescent assay kit); format: biochemical, Human; settings: lysed HeLa cells; read-out: HDAC (FDL_HELA) IC50 ± SD
Measurement Label: IC50 (nM)

O=C(/C=C/c1cccc(S(=O)(=O)N2CCN(c3ccccc3Cl)CC2)c1)NO    68
O=C(/C=C/c1cccc(S(=O)(=O)Nc2cccc(F)c2)c1)NO    20
COc1ccc2nc(/C=C/C(=O)NO)ccc2c1    28
O=C(/C=C/c1ccccc1)NCCCCCC(=O)NO    20

[1] COc1ccc(NS(=O)(=O)c2cccc(/C=C/C(=O)NO)c2)cc1OC
[2] O=C(/C=C/c1cccc(S(=O)(=O)Nc2ccc(OC(F)F)cc2)c1)NO
Decide: 1 or 2 , by lowest recorded IC50. Answer by stating the label of the chosen item.
2
(2: 10 nM, 1: 23 nM)

[I] O=C(/C=C/c1cccc(S(=O)(=O)N2CCN(Cc3ccc4c(c3)OCO4)CC2)c1)NO
[II] O=C(/C=C/c1ccc2ccccc2n1)NO
Decide: I or II , by lowest recorded IC50. Answer by stating the label of the chosen item.
II
(II: 22 nM, I: 269 nM)

[P] O=C(/C=C/c1cccc(S(=O)(=O)N2CCN(c3ccccc3F)CC2)c1)NO
[Q] COc1cccc(NS(=O)(=O)c2cccc(/C=C/C(=O)NO)c2)c1
[R] O=C(/C=C/c1cccc(S(=O)(=O)Nc2ccc(Cl)cc2)c1)NO
[S] O=C(/C=C/c1cccc(S(=O)(=O)N2CCN(c3ccccc3)CC2)c1)NO
Given 4 compounds, produce a descending ranking by IC50. Reply with the labels, ordered as the question asks.
P, S, R, Q

[a] COc1ccc(N2CCN(S(=O)(=O)c3cccc(/C=C/C(=O)NO)c3)CC2)cc1
[b] COc1ccccc1N1CCN(S(=O)(=O)c2cccc(/C=C/C(=O)NO)c2)CC1
[c] O=C(/C=C/c1nc2ccccc2o1)NO
Exam item: list the entries in increasing order of IC50. Reply with the labels, ordered as the question asks.
b, c, a
(b: 22 nM, c: 48 nM, a: 212 nM)
